The reported measurements were obtained from patent US20220401514A1.

Form field: Antibiotic FIC (one value per entry).
# Tested on: Klebsiella pneumoniae strain 1139
# TEST_DETAILS: Checkerboard assay (FICI) with antibiotics, K. pneumoniae
# Type: cell-based
# COND: combined with Chp2
Lab note: jot the number down without any unit.

Recorded results for 3 compounds are shown here.
C[C@H]1[C@H](NC(=O)/C(=N\OC(C)(C)C(=O)O)c2csc(N)n2)C(=O)N1S(=O)(=O)O [Aztreonam] | 0.5
NC[C@H]1O[C@H](O[C@H]2[C@H](O)[C@@H](O[C@H]3O[C@H](CO)[C@@H](O)[C@H](N)[C@H]3O)[C@H](N)C[C@@H]2N)[C@H](N)C[C@@H]1O [tobramycin, reference compound] | 0.25
C[C@H]1COc2c(N3CCN(C)CC3)c(F)cc3c(=O)c(C(=O)O)cn1c23 [Levofloxacin] | 0.25

Kindly review the next compound as well.
Query: Look at this compound and give its reported Antibiotic FIC. C[C@@H](O)[C@H]1C(=O)N2C(C(=O)O)=C(S[C@@H]3CN[C@H](C(=O)N(C)C)C3)[C@H](C)[C@H]12 [meropenem, reference compound]
Response: 0.25

====

# Test system: P. aeruginosa strain CFS-1292
# TEST_DETAILS: MIC in presence of mouse, rat, rabbit and human serum ([…] each)
# Format: cell-based, Pseudomonas aeruginosa
# COND: P. aeruginosa CFS-1292; New Zealand White rabbit serum […]
ENDPOINT_LABEL: MIC New Zealand White Rabbit Serum (µg/mL)
Only the number, expressed in µg/mL, is required.

Consider the following illustrative entries.
MKRRKLSKKKSRKIFTRGAVNVKKRNLRARPMRGGFRI [Chp10] | 4
MARSRRRMSKRSSRRSFRKYAKTHKKNFKARSMRGGIRL [Ecp3] | 8
MRRRRLSRRTSRRFFRKGLKVRRRNLRARPMRGGFRI [Unp2] | 4
MRLKMARRRYRLPRRRSRRLFSRTALRMHPRNRLRRIMRGGIRF [Chp2] | 2
MARRYRLSRRRSRRLFSRTALRMHRRNRLRRIMRGGIRF [Chp4] | 2

Here is another sequence to look at.
Query: May I ask what MIC New Zealand White Rabbit Serum has been recorded for MARRRYRLPRRRSRRLFSRTALRMHPRNRLRRIMRGGIRF [Chp6] ?
Response: 4

====

# Tested on: M. fortuitum
# TEST_DETAILS: 45 hr MIC against M. fortuitum (NTM)
# Assay type: cell-based, Mycobacterium fortuitum
# COND: M. fortuitum subsp. Fortuitum da Costa Cruz. ATCC 6841
ENDPOINT_LABEL: 45 hr MIC (mg/L)
The reply should be a number in mg/L, with the unit left off.

MAKKIRNKARDRRIFTRTASRMHKANRTPRFMRGGIRL [ALCES1] | 4
MSLRRHKLSRKASKRIFRKGASRTKTLNTRATPMRGGFRI [Chp9] | 4

Next sequence, 45 hr MIC to be filled in.
Query: Which 45 hr MIC is reported for this sequence? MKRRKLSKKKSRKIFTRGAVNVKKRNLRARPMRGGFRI [Chp10]
Response: 1

====

# System: carbapenem-resistant bacterial strains
# TEST_DETAILS: organism not typed
# Format: cell-based
# COND: carbapenem-resistant isolate PA23
Measured MIC, listed per entry for reference.

Here are 2 sequences together with their reported answers.
MRRPRKMNYKKSKRMFSRTAARTHRKNSLRGSRPMRGGIRL [Gkh1] | >8 µg/mL
MSKKRSRMSRRRSKKLFSKTALRTKSVNTRPPMRGGFRF [Chp8] | >8 µg/mL

# input for lookup
Query: Record request: MIC value, item MSLRRHKLSRKASKRIFRKGASRTKTLNTRATPMRGGFRI [Chp9]
Response: >8 µg/mL
